Target: T1, full-length human Regnase-1 with a FLAG tag on the N-terminal side and a biotin ligase BirA recognition … (human, UniProt Q5D1E8 1-599, biotinylated where required ; Biotinylated at the BirA recognition sequence where required. That sequence is not in the letters.)
T1 sequence: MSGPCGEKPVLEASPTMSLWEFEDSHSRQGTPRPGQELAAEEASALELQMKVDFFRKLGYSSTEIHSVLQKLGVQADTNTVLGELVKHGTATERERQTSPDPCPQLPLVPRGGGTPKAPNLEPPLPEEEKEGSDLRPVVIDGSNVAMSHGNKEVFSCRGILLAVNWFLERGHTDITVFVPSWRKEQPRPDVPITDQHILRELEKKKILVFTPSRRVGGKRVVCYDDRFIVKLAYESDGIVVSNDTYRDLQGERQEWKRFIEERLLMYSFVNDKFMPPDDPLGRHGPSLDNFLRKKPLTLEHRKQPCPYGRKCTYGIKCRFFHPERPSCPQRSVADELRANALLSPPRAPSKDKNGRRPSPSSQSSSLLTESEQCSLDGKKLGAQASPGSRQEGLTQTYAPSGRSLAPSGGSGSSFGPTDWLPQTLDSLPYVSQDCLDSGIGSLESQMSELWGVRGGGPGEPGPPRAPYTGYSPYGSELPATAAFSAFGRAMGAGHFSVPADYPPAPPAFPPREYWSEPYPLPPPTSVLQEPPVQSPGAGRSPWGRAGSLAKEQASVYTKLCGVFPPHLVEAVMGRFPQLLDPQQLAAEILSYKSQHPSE
Experiment: cell-based or functional assay
Positions of bridges follow the written chain, without caps; N, C: chain ends. Non-standard residues stand in square brackets, D forms with d. No end group written: not given here. NMeA = CN[C@@H](C)C(=O)O; dNMeA = CN[C@H](C)C(=O)O
IC50, phosphorylation by TBK1 listing for selected binders.
parameter.measured: IC50, phosphorylation by TBK1 (µM)

> print(dat)
                                   binder  reported.measurement
1   [NMeA]GYANSWYNIWD (lactam N-12) [PP2]                  21.7
2    [NMeA]YIWDFFGDLD (lactam N-11) [PP4]                  61.9
3   [NMeA]TSWYKVNWGQD (lactam N-12) [PP1]                  54.5
4    [NMeA]HSNAWYNIWD (lactam N-11) [PP5]                  24.2
5   [dNMeA]PNSSWFKIWD (lactam N-11) [PP6]                  13.1
6  [dNMeA]KHASAWYRIWD (lactam N-12) [PP3]                   3.9
